Origin of measurements: patent US12570648B2

system: MOLT-4 cells; assay: MOLT-4 cell viability using MTT assay; format: cell-based; conditions: Homo sapiens, MOLT-4, 48 h, 48 h exposure
pIC50: −log10 of the molar value.
assay readout: pIC50

>  <input smiles>
Cc1c(Nc2nc3ccccc3s2)nnc2c1CCCN2c1nc(C(=O)O)c(CCCOc2ccc(C#CCN3C[C@H]4C[C@H]4C3)cc2F)s1

>  <pIC50>
8.84

$$$$
>  <input smiles>
Cc1c(Nc2nc3ccccc3s2)nnc2c1CCCN2c1nc(C(=O)O)c(CCCOc2ccc(CCN(C)C)cc2F)s1

>  <pIC50>
8.01

$$$$

I. Cc1c(Nc2nc3ccccc3s2)nnc2c1CCCN2c1nc(C(=O)O)c(CCCOc2cc3c(cc2F)c(CN(C)C)cn3C)s1
II. Cc1c(Nc2nc3ccccc3s2)nnc2c1CCCN2c1ccc(-c2cnn(CC34CC5(C)CC(C)(C3)CC(OCCN3CCN(C(C)C)CC3)(C5)C4)c2C)c(C(=O)O)n1
III. CCN(CC)CC#Cc1ccc(OCCCc2sc(N3CCCc4c3nnc(Nc3nc5ccccc5s3)c4C)nc2C(=O)O)c(F)c1
q: Sort by pIC50, descending. Please respond by ranking the labels in the order requested.
a: II, III, I
